These data points were gathered from PubChem BioAssay.

Experiment: reduction of polyQ htt aggregates in cells – imaging, exon1htt(103Q)mCFP cells, high-content imaging, primary screen (AID 483);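 further: compound exposure lasted 3 days before fixation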
Conditions: exon1htt(103Q)mCFP cell line, aggregate imaging, at 2 µM; stronger effect = higher value
endpoint-name: inhibition of aggregation (%)
Answer format: numeric, % implied, no suffix.

compound	inhibition of aggregation / %
Cc1noc(/C=C/N(C)C)c1S(=O)(=O)N1CCCC(C(=O)NC2CCCCC2)C1 (stereo not given)	7.9
Cc1c(NC(=O)CN2c3cccc4cccc(c34)S2(=O)=O)c(=O)n(-c2ccccc2)n1C	1.4
COC(=O)c1sccc1NC(=O)c1ccco1	8.2
Cc1cccc(N(CC(=O)N2CCCC2)S(=O)(=O)c2ccccc2)c1C	23.9

Next up:
Please give the documented inhibition of aggregation of COCCN(C(=O)CNC(=O)c1ccco1)C(C(=O)NC1CCCCC1)c1cccc(OC)c1 (stereo not given)
15.9

###

# reported inhibition; entries follow
Experiment: TLR3 IRF3 reporter activation blockers – cell-based, poly I:C stimulus, luciferase, 10K MLSCN set, primary screen (AID 602277)
Conditions: HEK293-TLR3 RL24 IRF3 luciferase reporter, at 10 µM, stronger effect = higher value
Give the quantity in %, number only.

Sample records with inhibition:
compound	inhibition, %
CCc1nccn1S(=O)(=O)c1ccc(C)c(C)c1	12.9
CC(=O)c1ccc2c3c(cccc13)C(=O)N(c1c(C)nn(C)c1C)C2=O	-10.1
CCOC(=O)N1CCN(C(=O)c2ccc3c(=O)n(CCc4ccccc4)c(=O)[nH]c3c2)CC1	-40
CCc1cc(C)cc(OCCNC(=O)c2ncn[nH]2)c1	18.1
C=CCSc1nnc(Cc2c(C)[nH]c3ccccc23)o1	15

Give reported inhibition value for `CCCc1cc(=O)oc2cc(C)cc(OC(=O)c3ccco3)c12`
-18.4

Kindly indicate its recorded inhibition. Item: `CCCCn1c(SCc2ccc(Cl)cc2)nc2c1c(=O)[nH]c(=O)n2C`
14.5

Give inhibition for `COc1ccc(C(=O)N2CCOCC2)cc1Br`
-3.39

###

Overview of recorded inhibition for various molecules
Assay: TLR3 IRF3 reporter activation blockers – cell-based, poly I:C stimulus, luciferase, 10K MLSCN set, primary screen (AID 602277)
Details: HEK293-TLR3 RL24 IRF3 luciferase reporter, at 10 µM, stronger effect = higher value
Express it in %; write the number only.

molecule	inhibition (%)
O=C(CC(Cc1ccccc1)C(=O)O)NCCc1ccc2c(c1)OCO2 (stereo unspecified)	23.4
Cc1cccc(C)c1OCc1nnc2c3cnn(C)c3ncn12	-26.9
Cc1nc2nc(Cc3ccccc3)[nH]n2c(=O)c1Cc1ccccc1	15.7

Identify measured inhibition associated with `Cc1cc(NC(=O)CSc2nccn2-c2ccc(Cl)cc2)no1`
-15.6

Identify inhibition associated with the molecule CCC(OC(=O)c1cccs1)C(=O)NCc1ccco1 (stereo unspecified)
25

Return inhibition for the following molecule: CCn1cc(C(=O)OCC(=O)OC2CC(C)CCC2C(C)C)c(=O)c2ccc(C)nc21 (stereo unspecified)
5.31

Using known records, supply inhibition for `Cn1c(=O)c2c(-c3ccncc3)c3c(nc2n(C)c1=O)-c1ccccc1C3=O`
22.4

In one line, give reported inhibition of the entry CCCCC(CC)Cn1c2nc3ccccc3nc2c2c(=N)oc(C)nc21 (stereo unspecified) .
15.4

Given the molecule `COc1cccc(C=Nc2ccc3c(c2)OCCO3)c1O` , write its reported inhibition.
-2.51

Annotate the molecule `CC(C)c1nc(N2CCN(C(=O)c3ccco3)CC2)c2c3c(sc2n1)CCCC3` with its measured inhibition.
-5.95

Provide inhibition value for the following molecule: COc1ccccc1NC(=O)C1CC(=O)N(c2ccc(F)cc2)C1 (stereo unspecified)
-26.4

Note inhibition for the molecule shown: `CN(C)c1ccc(NC(=O)Nc2cccc(Cl)c2)cc1`
-104

Output inhibition of `CCOc1ccc(NC(=O)c2ccncc2)cc1`
-19.1

Identify measured inhibition corresponding to `Cc1cc(C)nc(SCc2ccc3nonc3c2)n1`
10.6

Please report inhibition for the following molecule: O=C(Nc1ccc(F)cc1F)NC1CC(=O)N(Cc2ccccc2)C1 (stereo unspecified)
1.35

Specify measured inhibition for COCCCNC(=O)CC1Oc2ccccc2NC1=O (stereo unspecified) .
33.9

Give me measured inhibition, please, for this molecule: `CCn1c(CSc2nnc(-c3cccnc3)n2-c2ccccc2C)nc2cc(C(=O)O)ccc21`
9.03

Return inhibition for the following molecule: `CC(=O)Nc1ccc2nc(-c3cccnc3)[nH]c2c1`
-16.4

Look up and report measured inhibition for this entry: `CCOc1ccc(S(=O)(=O)Nc2cccc(Cl)c2)cc1`
34.1

Quickly give me recorded inhibition for `Cc1c(CNCc2cccs2)c(C(=O)O)c(C)n1Cc1ccccc1`
17

Please look at this molecule and report its inhibition: `CC(C)(C#N)Nn1cnnc1`
21.2

Supply recorded inhibition for O=C(C1CCCO1)N1CCN(C(c2ccccc2)c2ccccc2)CC1 (stereo unspecified) here.
27.4

Respond only with inhibition recorded for `NC(=O)C1CCN(CC(=O)N2c3ccccc3CCc3ccccc32)CC1`
23.9

Determine from records and report inhibition for `COc1ccc(-n2c(=O)cc(N3CCN(Cc4ccccc4)CC3)[nH]c2=O)cc1`
18.9

Tell me inhibition reported for `O=C(NCc1cccs1)c1cc2c(s1)CS(=O)(=O)C2`
87

State, in one line, measured inhibition of `CCN(CC)S(=O)(=O)c1cccc(-c2nnc(SCCOc3ccccc3C)o2)c1`
-24.4

Annotate the molecule `CN1CCN(c2nc(-c3ccncc3)nc3ccccc23)CC1` with its measured inhibition.
15.9

For `Cc1ccccc1-c1nc(CN2CCC(C(=O)NCc3cccnc3)CC2)c(C)o1` , write its inhibition.
17.2

###

Parameter: nuclei count. Scope: all listed entries.
Assay: endothelial E-selectin expression blockers – imaging, HUVEC, immunofluorescence, MLSMR starter and 10KST1 sets, primary screen (AID 487);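 on nuclei count: 100% = median nuclei count of all wells on the same plate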
Settings: HUVEC TNFalpha-induced E-selectin immunofluorescence imaging, at 2 µM; measured here: cell number, toxicity
Number only, in %; omit the unit.

Please give the documented nuclei count of `Cc1occc1-c1nnc(SCC(=O)N2CCOCC2)n1Cc1ccco1`
107

Return nuclei count for the following compound: `c1ccc(-c2cn3cccnc3n2)cc1`
123

Respond only with nuclei count recorded for `CCCn1c2ccccc2c2nnc(SCC(=O)Nc3ncccn3)nc21`
98.8

###

Assay: endothelial E-selectin expression blockers – imaging, HUVEC, immunofluorescence, MLSMR starter and 10KST1 sets, primary screen (AID 487);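 on inhibition: signal is fraction of cell area covered by stained E-selectin grains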
Settings: HUVEC TNFalpha-induced E-selectin immunofluorescence imaging, at 2 µM; stronger effect = higher value
Each record here notes measured inhibition.
Supply the numeric figure in %, leaving out any unit text.

In the examples that follow, each entry is paired with its recorded inhibition.
molecule	result-units	inhibition
O=C(CSc1nc2ccccc2o1)NC(=O)NCc1ccco1	%	-31.1
COc1ccc(CCNC(=O)CC2COc3ccccc3O2)cc1OC (stereo not drawn)	%	-28.9

Output inhibition of `O=C(OCC#CCSc1nnc(-c2ccncc2)o1)c1cccs1`
-19.4

Identify measured inhibition corresponding to `Cc1c(N=C2SCC(=O)N2c2c(C)n(C)n(-c3ccccc3)c2=O)c(=O)n(-c2ccccc2)n1C`
-66.8

Tell me inhibition reported for `Cc1cc(N2CCN(C)CC2)nc(N2CCOCC2)n1`
-24.5

###

Each entry below carries its reported slope.
Target: Alpha-2C adrenergic receptor (Homo sapiens)
Experiment: compounds altering alpha2C-coupled GIRK flux – cell-based, HEK293 alpha2C/GIRK1/2, thallium flux, primary screen (AID 624);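 further: slope of fluorescence ratio to pre-addition baseline per second over 15 to 24 s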
Details: thallium flux BTC fluorescence, at 10 µM, actives lie on both sides
Form rule: numeric answer, no unit written next to it.

compound	reported-result
CC(C)C(=O)Nc1ccc(-c2nc3cccnc3o2)cc1	0.0065
COc1cc(NC(=O)c2nccnc2C(=O)O)cc(OC)c1	0.00607

Tell me slope reported for `COc1ccc(CNS(=O)(=O)c2ccc3oc(C(=O)O)c(C)c3c2)cc1`
0.00607

Return the recorded slope value; entry: CC(=O)NC(C)C(=O)OCc1ccc(Cl)cc1Cl (configuration not stated)
0.00444

Give me measured slope, please, for this compound: COc1cccc(NC(=O)N(CCCN2CCOCC2)C(C)c2cc3cccc(OC)c3o2)c1 (configuration not stated)
0.00436

Look up slope of CCOC(=O)C1=C(N)OC2=C(C(=O)CC(C)(C)C2)C1c1ccoc1 (configuration not stated) and report it.
0.00368

###

Test: blockers of RIG-like receptor reporter activation – cell-based, Sendai virus stimulus, luciferase, 10K MLSCN set, TLR/RLR signaling modifier project, primary screen (AID 602276);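 further: firefly luciferase from ISG56 promoter only with Renilla not read in this screen; 0% = Sendai virus plus DMSO and 100% = medium plus DMSO without virus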
Conditions: HEK293 RL24 IRF3 luciferase reporter, at 10 µM, stronger effect = higher value
Measured inhibition, listed per entry.
A number alone suffices; assume %.

compound	result-units	inhibition
Cc1cc(C)n(-c2nc3ccccc3c(=O)n2OCCOc2ccccc2)n1	%	-12.3
O=C(Nc1ccc2c(c1)OCO2)c1nn(-c2ccccc2)c(=O)c2ccccc12	%	13.5
Cc1ccc(NC(=O)c2ccco2)c(NC(=O)CN2C(=O)c3ccccc3C2=O)c1	%	0.0738
Oc1cccc(Nc2nc(NCC3CCCO3)c3ccccc3n2)c1 (stereo not given)	%	14.4

Pending compound:
Consider the compound CC(=O)Nc1ccc(S(=O)(=O)N2CCN(C(C)CCc3ccccc3)CC2)cc1 (stereo not given) and give its recorded inhibition.
7.51
